system: T1, N-glycosylation knocked-out NTCP (NTCPWT_KOG) (human, UniProt Q14973 1-349)
T1 chain: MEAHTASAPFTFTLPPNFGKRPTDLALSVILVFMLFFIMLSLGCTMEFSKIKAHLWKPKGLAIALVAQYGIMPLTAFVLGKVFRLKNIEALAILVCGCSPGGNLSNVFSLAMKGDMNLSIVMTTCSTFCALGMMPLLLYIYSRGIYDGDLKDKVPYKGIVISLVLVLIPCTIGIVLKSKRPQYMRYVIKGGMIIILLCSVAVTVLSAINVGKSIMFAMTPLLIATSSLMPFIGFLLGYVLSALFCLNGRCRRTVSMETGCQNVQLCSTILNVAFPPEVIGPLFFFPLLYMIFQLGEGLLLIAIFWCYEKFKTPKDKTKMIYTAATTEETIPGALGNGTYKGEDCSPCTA
procedure text: competition with Nb91, substrate uptake read-out in HEK293 cells expressing NTCPWT-KOG, Nbs at 10 µM

binder: NbNTCP_91- R29G variant (VHH, Single mutant of Nb91; also called Nb91 R29G; NbNTOP_91- R29G variant) VHH: QVQLVESGGGLVEAGGSLRLSCAASTNLGSYAMAWFRQAPGKEREFVSFINWNYGNTRYADSVKGRFTISRDNAKITVYLQMNSLKPEDTAVYYCAAATIGRLAGIDSTTLYDYWGQGTQVTVSS
binding result: binds
--
binder: NbNTCP_91- N27E variant (VHH, Single mutant of Nb91; also called Nb91 N27E) VHH: QVQLVESGGGLVEAGGSLRLSCAASTELRSYAMAWFRQAPGKEREFVSFINWNYGNTRYADSVKGRFTISRDNAKITVYLQMNSLKPEDTAVYYCAAATIGRLAGIDSTTLYDYWGQGTQVTVSS
binding result: binds

Ref: patent US20250304664A1
